- Test system: MCF-7
- assay-method-text: Cell growth "rescue" experiments with geranylgeraniol (GGOH)
- Type: cell-based, Human
- test-conditions: Homo sapiens, MCF7; with addition of geranylgeraniol (GGOH); read-out: IC50 +GGOH

{"columns": ["molecule", "system", "IC50, µM"],
 "data": [
  ["O=P(O)(O)C(O)(Cn1ccnc1)P(=O)(O)O [Zol, zoledronate]", "MCF-7", 48]
]}

====

- System: Human tumor cell lines MCF-7 (breast adenocarcinoma)
- assay-method-text: Cell-growth inhibition assay (MTT cell proliferation assay, 4 days)
- Assay type: cell-based
- test-conditions: Homo sapiens, MCF7, 96 h, molar basis, MCF-7, 4 days incubation, read-out: IC50

{"columns": ["molecule", "system", "IC50"],
 "data": [
  ["O=P(O)(O)C(O)(Cn1ccnc1)P(=O)(O)O [Zol, zoledronate]", "Human tumor cell lines MCF-7 (breast adenocarcinoma)", "15 µM"]
]}
